Taken from PubChem BioAssay AID210.

# Tested on: CD2F1 mice, ip Colon 26 adenocarcinoma, median survival T/C
# procedure.summary: NCI In Vivo Anticancer Drug Screen. Data for tumor model Colon 26 Adenocarcinoma (intraperitoneal) in CD2F1 (CDF1) mice
# test.context: endpoint: median survival time; dose: 12.5 mg/kg/injection; schedule: Q04DX003 (ip); vehicle: saline with Tween-80; higher = longer survival
Inconclusive results and toxic doses are left out.
measure.name: T/C

[in] Query (compound): `Cc1ncc([N+](=O)[O-])n1CCSC(N)=O` ; field requested: T/C
[out] 94 % of control

[in] T/C for CCCCCCCC(=O)[O][Hg][CH2]C1COC([CH2][Hg][O]C(=O)CCCCCCC)CO1 (configuration not stated) ?
[out] 95 % of control

[in] Quick one: T/C for `CN1C(=O)CC2(CCN(CCCC(=O)c3ccc(F)cc3)CC2)C1=O` ?
[out] 100 % of control

[in] Item CCOC(C)C(/C=N/NC(N)=S)=NNC(N)=S (configuration not stated) has what recorded T/C?
[out] 98 % of control

[in] # input compound: `C=C/C(C)=C/[C@H](C)C(=O)C[C@H](O)CC1CC(=O)NC(=O)C1` ; wanted: its T/C
[out] 100 % of control

[in] Can you look up the measured T/C of CCSC(=O)N1c2ccc(OC)cc2C=CC1C#N (configuration not stated) for me?
[out] 106 % of control

[in] Consider the compound shown here: `Cc1c2ccncc2c(C)c2c1[nH]c1ccccc12` What is its recorded T/C?
[out] 112 % of control

[in] Field request: T/C | item: `Cc1ccc(NC(=O)Oc2ccc(Br)cc2Br)c([N+](=O)[O-])c1`
[out] 97 % of control

[in] Would you mind telling me what T/C value was observed for `C=CCNc1ccc(C)cc1` ?
[out] 104 % of control

[in] Data request, read-out T/C, for COc1cc(C)c2c(c1C=O)Oc1c(c(C)c(O)c3c1C(O)OC3=O)OC2=O (configuration not stated)
[out] 104 % of control

[in] Quick one: T/C for COC(=O)C(F)C(Br)C(=O)OC (configuration not stated) ?
[out] 102 % of control

[in] # get_value(readout='T/C', item= [I][Hg][CH2]C1COC([CH2][Hg][I])CO1 (configuration not stated) )
[out] 117 % of control

====

# System: CD2F1 mice, ip Colon 26 adenocarcinoma, median survival T/C
# procedure.summary: NCI In Vivo Anticancer Drug Screen. Data for tumor model Colon 26 Adenocarcinoma (intraperitoneal) in CD2F1 (CDF1) mice
# test.context: endpoint: median survival time; dose: 4.0 mg/kg/injection; schedule: Q01DX009 (ip); vehicle: saline
Toxic doses and inconclusive results are not listed. Rule for the calls: active = survival T/C of 150% or more; inactive = T/C below 125% in these data.
Field 'call' accepts Y for active, N for inactive

[in] I'd appreciate the recorded outcome for `CN(C)CCCNc1ccc(NCCCN(C)C)c2c1C(=O)c1ccccc1C2=O` from this test.
[out] N

[in] Recorded test call requested for `CN(C)CCCNc1cccc2c1C(=O)c1c(NCCCN(C)C)cccc1C2=O`
[out] N

[in] Any idea what this test logged for `O=C1c2ccccc2C(=O)c2c(NCCNCCO)ccc(NCCNCCO)c21` ?
[out] Y

[in] Hi, sorry to bother you, what did the test record for Cc1c(N)nc([C@H](CC(N)=O)NC[C@H](N)C(N)=O)nc1C(=O)N[C@H](C(=O)N[C@H](C)[C@@H](O)[C@H](C)C(=O)N[C@H](C(=O)NCCc1nc(-c2nc(C(=O)NCCC[S+](C)C)cs2)cs1)[C@@H](C)O)C(OC1OC(CO)C(O)C(O)C1OC1OC(CO)C(O)C(OC(N)=O)C1O)c1cnc[nH]1 (some centres undefined) ?
[out] N

====

For each of the compounds below, state its T/C.
# Tested on: CD2F1 mice, ip Colon 26 adenocarcinoma, median survival T/C
# procedure.summary: NCI In Vivo Anticancer Drug Screen. Data for tumor model Colon 26 Adenocarcinoma (intraperitoneal) in CD2F1 (CDF1) mice
# test.context: endpoint: median survival time; dose: 0.5 mg/kg/injection; schedule: Q04DX003 (ip); vehicle: saline; higher = longer survival
# Description: The antitumor activity of compounds was measured in mice bearing transplantable tumors. Survival or tumor size were measured and the results are expressed as the measurement made in the treated group (T) divided by the measurement made in the vehicle treated control group (C). The tumor model used in this assay is Colon 26 Adenocarcinoma (intraperitoneal) in CD2F1 (CDF1) mice
Inconclusive results and toxic doses are left out.

[in] So what's the measured T/C for this one? COc1ccc(CC2C(=O)NC(C)C(=O)N(C)C3C(=O)N(C)C(Cc4ccc(O)c(c4)Oc4ccc(cc4)C3O)C(=O)NC(C)C(=O)NC(C)C(=O)N2C)cc1 (stereo unspecified) (tested in a mixture with another compound)
[out] 98 % of control

[in] So what's the measured T/C for this one? CO[C@H](C(=O)[C@@H](O)[C@@H](C)O)[C@@H]1Cc2cc3cc(OC4CC(OC5CC(O)C(O)C(C)O5)C(O)C(C)O4)c(C)c(O)c3c(O)c2C(=O)[C@H]1OC1CC(OC2CC(OC3CC(C)(O)C(O)C(C)O3)C(O)C(C)O2)C(O)C(C)O1 (stereo partly specified)
[out] 98 % of control

[in] Reported T/C for CC1CC(C)CC(C)C(O)/C(C#N)=C/C=C/CC(C2CCCC2C(=O)O)OC(=O)CC(O)C(C)C1 (stereo unspecified) : what is it?
[out] 103 % of control

[in] # get_value(readout='T/C', item= COc1ccc(CC2C(=O)NC(C)C(=O)N(C)C3C(=O)N(C)C(Cc4ccc(O)c(c4)Oc4ccc(cc4)C3O)C(=O)NC(C)C(=O)NC(C)C(=O)N2C)cc1 (stereo unspecified) )
[out] 98 % of control

[in] Which T/C is listed for OC(C1CO1)C(O)C1CO1 (stereo unspecified) ?
[out] 110 % of control

[in] Name the reported T/C value associated with the compound COc1ccc(CC2C(=O)NC(C)C(=O)N(C)C3Cc4ccc(cc4)Oc4cc(ccc4O)CC(C(=O)NC(C)C(=O)NC(C)C(=O)N2C)N(C)C3=O)cc1 (stereo unspecified)
[out] 97 % of control

====

# Test system: CD2F1 mice, ip Colon 26 adenocarcinoma, median survival T/C
# procedure.summary: NCI In Vivo Anticancer Drug Screen. Data for tumor model Colon 26 Adenocarcinoma (intraperitoneal) in CD2F1 (CDF1) mice
# test.context: endpoint: median survival time; dose: 3.12 mg/kg/injection; schedule: Q04DX003 (ip); vehicle: Klucel (hydroxypropylcellulose) (HPC); higher = longer survival
Inconclusive results and toxic doses are left out.
measure.name: T/C

[in] Would you kindly share the measured T/C for `O=[N+]([O-])/C=C\c1ccc2c(c1)OCO2` ?
[out] 87 % of control

[in] Suppose we examine the molecule `O=C(CCCN1CCC(O)(c2cccc(C(F)(F)F)c2)CC1)c1ccc(F)cc1` ; what T/C value has been reported?
[out] 94 % of control

[in] What does the data say about its T/C? Entry: `C/C(=C\c1ccccc1)[N+](=O)[O-]`
[out] 91 % of control

[in] Which T/C is reported for this molecule? `CCC[CH2][Hg][Cl]`
[out] 98 % of control

====

# Tested on: CD2F1 mice, ip Colon 26 adenocarcinoma, median survival T/C
# procedure.summary: NCI In Vivo Anticancer Drug Screen. Data for tumor model Colon 26 Adenocarcinoma (intraperitoneal) in CD2F1 (CDF1) mice
# test.context: endpoint: median survival time; dose: 400.0 mg/kg/injection; schedule: Q04DX003 (ip); vehicle: saline; higher = longer survival
Toxic doses and inconclusive results are not listed.
Give measured T/C for each item. Keep answers brief.

[in] For the molecule O=C1NC(O)CCN1C1OC(CO)C(O)C1O (centres undefined) , what T/C is on record?
[out] 100 % of control

[in] // returns reported T/C for input `COc1cc(C[C@H]2c3cc(OC)c(OC)cc3CCN2C)c(Oc2cc3c(cc2OC)-c2c(OC)c(OC)cc4c2[C@H](C3)N(C)CC4)cc1OC`
[out] 95 % of control

[in] Which T/C is listed for COC(OC(CO)C(O)S(=O)(=O)O)C(O)S(=O)(=O)O (centres undefined) ?
[out] 100 % of control

[in] Would you kindly share the measured T/C for O=C1C=CN(C2OC(CO)C(O)C2O)C(=O)C1 (centres undefined) ?
[out] 109 % of control

====

Give T/C for every item shown.
# Test system: CD2F1 mice, ip Colon 26 adenocarcinoma, median survival T/C
# procedure.summary: NCI In Vivo Anticancer Drug Screen. Data for tumor model Colon 26 Adenocarcinoma (intraperitoneal) in CD2F1 (CDF1) mice
# test.context: endpoint: median survival time; dose: 200.0 mg/kg/injection; schedule: Q04DX002 (ip); vehicle: Klucel (hydroxypropylcellulose) (HPC); higher = longer survival
Inconclusive results and toxic doses are left out.

[in] Give its T/C value. Item: CC1CC2OC2/C=C\C=C\C(=O)Cc2c(Cl)c(O)cc(O)c2C(=O)O1 (stereo unspecified)
[out] 95 % of control

[in] Please give the measured T/C for this molecule: NC(=O)c1ncn(C2OC(CO)C(O)C2O)c1O (stereo unspecified)
[out] 107 % of control

[in] Looking for the measured T/C of `C[C@]12CC[C@@H]3c4ccc(O)cc4CC[C@H]3[C@@H]1CC[C@@H]2O` , can you help?
[out] 98 % of control

[in] Would you kindly share the measured T/C for COC1=CC(=O)N(C(=O)C2CSC(C(CO)NC(=O)c3csc(/C=N/O)n3)=N2)C1 (stereo unspecified) ?
[out] 101 % of control

[in] Fill in: T/C of `CC(C)CCC[C@@H](C)[C@H]1CC[C@H]2[C@@H]3CC=C4C[C@@H](OC(=O)Cc5ccc(N(CCCl)CCCl)cc5)CC[C@]4(C)[C@H]3CC[C@]12C` is ___
[out] 101 % of control

[in] Requested read-out: T/C. Entry: `CC[C@H](CC[C@@H](C)[C@H]1CC[C@H]2[C@@H]3CC=C4C[C@@H](OC(C)=O)CC[C@]4(C)[C@H]3CC[C@]12C)C(C)C`
[out] 90 % of control
